target: human ether-à-go-go-related gene (hERG) potassium channel (human, UniProt Q12809); assay: primary screen, population patch clamp on CHO cells stably expressing hERG; higher = less effect of the substance
Sequence (Q12809 whole entry, looked up): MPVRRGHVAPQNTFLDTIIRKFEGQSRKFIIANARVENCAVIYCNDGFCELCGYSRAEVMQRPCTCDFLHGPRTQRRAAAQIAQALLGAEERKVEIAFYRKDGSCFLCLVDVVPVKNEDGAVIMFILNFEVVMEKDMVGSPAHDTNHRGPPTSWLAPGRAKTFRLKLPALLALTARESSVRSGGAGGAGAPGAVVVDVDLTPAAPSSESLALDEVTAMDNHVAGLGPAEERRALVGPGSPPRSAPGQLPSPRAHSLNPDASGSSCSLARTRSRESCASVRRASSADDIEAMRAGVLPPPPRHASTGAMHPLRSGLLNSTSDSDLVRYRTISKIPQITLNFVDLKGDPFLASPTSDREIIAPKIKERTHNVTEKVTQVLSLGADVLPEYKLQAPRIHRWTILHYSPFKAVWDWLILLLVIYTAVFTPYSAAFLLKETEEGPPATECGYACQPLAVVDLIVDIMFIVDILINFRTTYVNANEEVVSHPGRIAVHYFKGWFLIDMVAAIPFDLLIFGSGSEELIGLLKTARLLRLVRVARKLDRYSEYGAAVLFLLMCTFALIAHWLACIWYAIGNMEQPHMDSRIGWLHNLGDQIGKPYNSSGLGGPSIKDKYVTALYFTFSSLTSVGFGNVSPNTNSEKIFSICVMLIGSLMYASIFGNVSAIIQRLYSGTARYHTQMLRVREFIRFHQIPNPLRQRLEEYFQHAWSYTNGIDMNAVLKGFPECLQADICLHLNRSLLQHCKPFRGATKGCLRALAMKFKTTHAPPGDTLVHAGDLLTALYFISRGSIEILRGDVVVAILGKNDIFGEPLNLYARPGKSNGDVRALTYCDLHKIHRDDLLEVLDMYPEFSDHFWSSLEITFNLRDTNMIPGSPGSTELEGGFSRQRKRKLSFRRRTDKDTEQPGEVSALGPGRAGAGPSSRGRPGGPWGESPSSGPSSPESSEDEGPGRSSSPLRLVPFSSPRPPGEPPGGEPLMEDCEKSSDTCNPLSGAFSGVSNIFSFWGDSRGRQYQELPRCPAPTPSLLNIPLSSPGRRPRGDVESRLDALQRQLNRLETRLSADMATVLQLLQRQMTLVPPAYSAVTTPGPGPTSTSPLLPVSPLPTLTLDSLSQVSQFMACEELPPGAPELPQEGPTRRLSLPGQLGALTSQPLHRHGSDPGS
Among all 310,000 compounds or so, about 14,000 (4.5%) showed an effect of 50% or more. The effect is printed as a negative number. This is one part of a sample in which strong results are shown more often than they occur.
ATTRIBUTE_MEASURED: hERG current change (%, negative = inhibition) at 10uM (%)
# output: bare number, implied unit %

Guide cases for hERG current change (%, negative = inhibition) at 10uM, answers given:
{"COMPOUND": "CN(CC(=O)Nc1cccc(F)c1)C(=O)c1ccc(N2CCCCCC2)c([N+](=O)[O-])c1", "NUMERIC_READOUT": 17.9}
{"COMPOUND": "COc1cccc(CN(C)C(=O)c2ccc(N3CCCC3)c([N+](=O)[O-])c2)c1", "NUMERIC_READOUT": -45.3}
{"COMPOUND": "O=C(Nc1ccccc1Cl)c1ccc(=O)[nH]n1", "NUMERIC_READOUT": 8.03}

For reference, reported hERG current change (%, negative = inhibition) at 10uM for `CCOc1ccc(NC(=O)CN(C)C(=O)c2cc(S(=O)(=O)N(C)C)ccc2N2CCCC2)cc1OCC` stands at 6.11

Entry under test: O=C(NC1CCCN(Cc2ccc(Cl)cc2)C1)c1ccccc1C(F)(F)F (stereo not drawn) . Its hERG current change (%, negative = inhibition) at 10uM was -16.9

Sure, the documented hERG current change (%, negative = inhibition) at 10uM for O=C(NC1CCCN(Cc2ccc(Cl)cc2)C1)c1cccc(F)c1 (stereo not drawn) is -61.3

Per the record, `Nc1ccc([N+](=O)[O-])cc1C(=O)NNC(=O)c1ccco1` has hERG current change (%, negative = inhibition) at 10uM of 25.9

The compound `CCOc1ccc(NC(=O)CN(C)C(=O)c2ccc(N3CCCCCC3)c([N+](=O)[O-])c2)cc1OCC` showed hERG current change (%, negative = inhibition) at 10uM equal to 3.4

The compound listed as `Cc1cc(-c2n[nH]c(=S)n2/N=C/C=C/c2ccccc2)n[nH]1` has a reported hERG current change (%, negative = inhibition) at 10uM of 6.76

----------
biological target: human ether-à-go-go-related gene (hERG) potassium channel (human); assay: primary screen, population patch clamp on CHO cells stably expressing hERG; higher = less effect of the substance;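 note: peak tail current of the secondary pulse compared with the same well before compound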
Out of some 310,000 compounds screened, about 14,000 (4.5%) showed an effect of 50% or more. Effects have a minus sign here. Only a selection was taken, and strong results are over-represented in it overall.
Below is a list of entries, each paired with its recorded hERG current change (%, negative = inhibition) at 10uM value.
Give the number; % is assumed, so skip it.

The value of hERG current change (%, negative = inhibition) at 10uM measured for the compound `Cn1c(OCc2ccc3c(c2)OCO3)nc2c1c(=O)n(Cc1cccc(Cl)c1)c(=O)n2C` turned out to be -0.643

Entry `Cn1c(=O)c2c(nc(N/N=C/c3cccnc3)n2Cc2ccccc2)n(C)c1=O` , hERG current change (%, negative = inhibition) at 10uM reported as -51.2

----------
target: human ether-à-go-go-related gene (hERG) potassium channel (human); test: primary screen, population patch clamp on CHO cells stably expressing hERG; higher = less effect of the substance;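 note: peak tail current of the secondary pulse compared with the same well before compound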
Among all 310,000 compounds or so, about 14,000 (4.5%) showed an effect of 50% or more. The effect is printed as a negative number. What follows is part of a selection rich in strong results, with near analogues and random picks from the rest.
Property: hERG current change (%, negative = inhibition) at 10uM; scope: individual molecules
Give the number; % is assumed, so skip it.

Solved entries (count: 3):
{"MOLECULE": "Cc1cc(O)c(C(C)C)cc1NC(=O)c1cccc(Cl)c1", "SYSTEM_NAME": "human ether-à-go-go-related gene (hERG) potassium channel (human)", "NUMERIC_READOUT": -13.4}
{"MOLECULE": "O=C(Nc1ccccc1N1CCCC1)c1ccc([N+](=O)[O-])o1", "SYSTEM_NAME": "human ether-à-go-go-related gene (hERG) potassium channel (human)", "NUMERIC_READOUT": 5.51}
{"MOLECULE": "CC(C)CC(NC(N)=O)C(=O)Nc1ccc(Oc2ccccc2)cc1 (centres unmarked)", "SYSTEM_NAME": "human ether-à-go-go-related gene (hERG) potassium channel (human)", "NUMERIC_READOUT": 10.1}

Recorded result, `CCC1=Nc2cc(C(=O)O)ccc2Sc2ccccc21` , hERG current change (%, negative = inhibition) at 10uM: 21.2

Entry under test: `O=c1cc(CN2CCN(Cc3ccccc3)CC2)c2ccc(O)c(O)c2o1` . Its hERG current change (%, negative = inhibition) at 10uM was -65.8

Consider Cc1ccc(NC(=O)C2CCCN(C3=NS(=O)(=O)c4ccccc43)C2)c(O)c1 (centres unmarked) . Its measured hERG current change (%, negative = inhibition) at 10uM is -33.6

Entry under test: Cc1cccc(C)c1NC(=O)C(NC=O)c1ccc(N(C)C)cc1 (centres unmarked) . Its hERG current change (%, negative = inhibition) at 10uM was -11.1

The molecule CC(=O)C1=C(O)C(=O)N(c2ccc(Br)cc2)C1c1cccc([N+](=O)[O-])c1 (centres unmarked) showed hERG current change (%, negative = inhibition) at 10uM equal to 24.5

# molecule O=C(Nc1ccc(Cl)cc1)C1CCCN(C2=NS(=O)(=O)c3ccccc32)C1 (centres unmarked) ; its hERG current change (%, negative = inhibition) at 10uM = -60

Record O=C(Nc1ccc(F)c(Cl)c1)C1CCCN(C2=NS(=O)(=O)c3ccccc32)C1 (centres unmarked) , field hERG current change (%, negative = inhibition) at 10uM: -63

Kindly note the recorded hERG current change (%, negative = inhibition) at 10uM for `CSc1nnc(-c2ccc(S(=O)(=O)N3CCOCC3)cc2)n1C` , which is -25

Lab book: hERG current change (%, negative = inhibition) at 10uM of `COc1cc(CN2CCC(n3nccc3NC(=O)CCCc3ccccc3)CC2)ccc1F` noted as -66.5

Entry under test: O=C(Nc1ccc(F)c(Cl)c1)C1CCCN(c2cnccn2)C1 (centres unmarked) . Its hERG current change (%, negative = inhibition) at 10uM was -24.9

# molecule O=C(Nc1ccc(Br)cc1)C1CCCN(C2=NS(=O)(=O)c3ccccc32)C1 (centres unmarked) ; its hERG current change (%, negative = inhibition) at 10uM = -29.1

Note to self: hERG current change (%, negative = inhibition) at 10uM recorded for `Cc1ccc2c(CN3CCCCC3)cc(=O)oc2c1C` was -1.49

Looking up `COc1cc(CN2CCC(n3nccc3NC(=O)CCCc3ccccc3)CC2)ccc1O` , I found its hERG current change (%, negative = inhibition) at 10uM recorded as -31.1

hERG current change (%, negative = inhibition) at 10uM for `Cc1cc(C)nc(NC(=O)c2ccccc2O)n1` is 18.3

----------
hERG current change (%, negative = inhibition) at 10uM values, listed per item
biological target: human ether-à-go-go-related gene (hERG) potassium channel (human, UniProt Q12809); assay: primary screen, population patch clamp on CHO cells stably expressing hERG; higher = less effect of the substance;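 note: peak tail current of the secondary pulse compared with the same well before compound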
Out of some 310,000 compounds screened, about 14,000 (4.5%) showed an effect of 50% or more. Effects have a minus sign here. This excerpt belongs to a sample that is enriched for strong results.
Entry rule: numbers only, all in %.

Solved entries (count: 3):
{"SMILES_RECORD": "CCOc1ccc(NC(=O)CN(C)C(=O)C2CCCC2)cc1OCC", "VALUE_UNITS": "%", "NUMERIC_READOUT": 27.8}
{"SMILES_RECORD": "Cc1sc2ncnc(N3CCC(C(=O)N(C)CC(=O)Nc4ccc(Cl)c(C(F)(F)F)c4)CC3)c2c1C", "VALUE_UNITS": "%", "NUMERIC_READOUT": 3.47}
{"SMILES_RECORD": "CCOc1ccc(NC(=O)CN(C)C(=O)C2CCN(c3ncnc4sc(C)c(C)c34)CC2)cc1OCC", "VALUE_UNITS": "%", "NUMERIC_READOUT": -58.2}

According to the records, this compound `COc1ccc(CCNC(=O)COC(=O)Cc2ccc(OC)cc2)cc1` displays hERG current change (%, negative = inhibition) at 10uM of 9.48

Given item `Cc1sc2ncnc(N3CCC(C(=O)N(C)CC(=O)Nc4ccccc4Br)CC3)c2c1C` , the value recorded as its hERG current change (%, negative = inhibition) at 10uM is -65.8

----------
A collection of molecules and their measured hERG current change (%, negative = inhibition) at 10uM
molecular target: human ether-à-go-go-related gene (hERG) potassium channel (human); assay: primary screen, population patch clamp on CHO cells stably expressing hERG; higher = less effect of the substance;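 note: peak tail current of the secondary pulse compared with the same well before compound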
Hit rate of the full screen: of about 310,000 compounds, about 14,000 (4.5%) showed an effect of 50% or more. The effect is printed as a negative number. What follows is part of a selection rich in strong results, with near analogues and random picks from the rest.

// recorded hERG current change (%, negative = inhibition) at 10uM for Cc1ccc(S(=O)(=O)C2(C(=O)N3CCCCC3C)CC2)cc1 (centres unmarked) : 1.58%

Note to self: hERG current change (%, negative = inhibition) at 10uM recorded for `C=Cc1ccc2c(c1)N(C)C(=C)S2.I` was 19.7%

Documented hERG current change (%, negative = inhibition) at 10uM of `COc1cc(/C=C(/NC(=O)c2ccccc2)C(=O)Nc2cccc(O)c2)c([N+](=O)[O-])cc1OC` : 0.394%

Lookup result for Cc1ccc(S(=O)(=O)Nc2cccc(C(=O)NCC(c3ccccc3)N(C)C)c2)cc1F (centres unmarked) ; measured hERG current change (%, negative = inhibition) at 10uM: -45.8%

What the record says about CCC(C)N1C(=O)c2ccccc2C1C(=O)NC1CCCCCC1 (centres unmarked) : hERG current change (%, negative = inhibition) at 10uM is 4.45%

The molecule identified as `O=[N+]([O-])c1ccc(N=NN(CCO)CCO)cc1` registered its hERG current change (%, negative = inhibition) at 10uM at -75.3%

// field: hERG current change (%, negative = inhibition) at 10uM; key: COc1ccccc1C(CNC(=O)c1cccc(NS(=O)(=O)c2ccc(Br)cc2)c1)N(C)C (centres unmarked) ; value = -51.7%

hERG current change (%, negative = inhibition) at 10uM reported for this molecule Cc1ccc(S(=O)(=O)Nc2cccc(C(=O)NCC(c3ccco3)N3CCCC3)c2)cc1F (centres unmarked) : -38.5%

Recorded result, `CCOc1cc(/C=N/NS(=O)(=O)c2ccc(OC)cc2)ccc1OCCN1CCOCC1` , hERG current change (%, negative = inhibition) at 10uM: -53.8%

Lab note: measured hERG current change (%, negative = inhibition) at 10uM of COc1ccc(C(CNC(=O)c2cccc(NS(=O)(=O)c3ccccc3)c2)N(C)C)cc1 (centres unmarked) was -46.4%

Entry COc1ccc(C(CNC(=O)c2ccc(NS(=O)(=O)c3ccc(F)c(C)c3)cc2)N(C)C)cc1 (centres unmarked) , hERG current change (%, negative = inhibition) at 10uM reported as -25.8%

Per the records, this molecule ( COc1ccc(C(CNC(=O)c2cccc(NS(=O)(=O)c3ccc(Br)cc3)c2)N(C)C)cc1 (centres unmarked) ) has hERG current change (%, negative = inhibition) at 10uM equal to -61.5%

Just so you know, measured hERG current change (%, negative = inhibition) at 10uM for `CCn1nnnc1SCC(=O)Nc1cc(OC)cc(OC)c1` came out at 11.8%

According to the records, this molecule `CC(C)N(N=Nc1ccc([N+](=O)[O-])cc1)C(C)C` displays hERG current change (%, negative = inhibition) at 10uM of 8.18%

Lookup result for `COc1ccc(OC)c(NC(=O)NCCc2cccc(Cl)c2)c1` ; measured hERG current change (%, negative = inhibition) at 10uM: 10.1%

Consider CN(C)N1C(N)=C(C#N)C(c2cccc(Cl)c2)C2=C1CCCC2=O (centres unmarked) . Its measured hERG current change (%, negative = inhibition) at 10uM is -26.2%

Looking up `CC1(C)OC(=O)C(=CNc2ccccc2)C(=O)O1` , I see its hERG current change (%, negative = inhibition) at 10uM listed as -4.48%

In plain terms, `COc1cc(/C=N/NS(=O)(=O)c2ccc3ccccc3c2)ccc1OCCN1CCOCC1` has a documented hERG current change (%, negative = inhibition) at 10uM of -39.5%

Summary for this molecule, `COc1cc([N+](=O)[O-])ccc1NC(=O)C[n+]1ccccc1C.[Cl-]` : hERG current change (%, negative = inhibition) at 10uM is 11%

What the record says about `CCN(CC)C(=O)c1c[nH]c2ccc(S(=O)(=O)Nc3cc(C)cc(C)c3)cc2c1=O` : hERG current change (%, negative = inhibition) at 10uM is -0.741%
